Recorded values, source patent US20210347914A1.

Experimental System: T1, Polyhistidine-tagged recombinant human GFAP expressed from E. coli (human, UniProt P14136 1-432)
T1 construct: also called His-tagged GFAP; not shown: polyhistidine tag
T1 sequence (P14136 whole entry): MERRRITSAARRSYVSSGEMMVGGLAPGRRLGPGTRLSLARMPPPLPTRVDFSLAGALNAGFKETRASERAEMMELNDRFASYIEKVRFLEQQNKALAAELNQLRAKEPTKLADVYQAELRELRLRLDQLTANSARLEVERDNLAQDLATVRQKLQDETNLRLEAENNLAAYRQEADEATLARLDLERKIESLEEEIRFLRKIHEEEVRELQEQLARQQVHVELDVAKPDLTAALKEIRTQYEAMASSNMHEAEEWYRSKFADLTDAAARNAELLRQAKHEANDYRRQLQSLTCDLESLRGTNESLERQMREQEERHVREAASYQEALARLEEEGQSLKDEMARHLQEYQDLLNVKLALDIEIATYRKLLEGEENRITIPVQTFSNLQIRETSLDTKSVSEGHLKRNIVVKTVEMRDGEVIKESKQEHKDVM
Protocol Details: BLI (Octet QKe); His-tagged GFAP on anti-Penta-HIS sensor, antibody in solution
Measured Parameter: koff (s⁻¹)
Use s⁻¹ as the unit, but write only the number.

Entry GFAP-3 (antibody, V domains shown, also called mouse anti-GFAP antibody GFAP-3) VH: EVKLEESGGGLVQPGGSMKLSCVASGFTFTNYWMSWVRQSPEKGLEWVAQIRLKSDNYATHYAESVKGRFTISRDDSKSSVYLQMNNLRAEDTGIYYCTGGEFLSWFAYWGQGTLVTVSA VL: DIVMSQSPSSLAVSAGEKVTMSCKSSQSLFNSRTRKNYLAWYQQKPGQSPKLLIYWASTRESGVPDRFTGSGSGTDFTLTISSVQAEDLAVYYCKQSYYLYTFGSGTKLEIK ; koff = 0.000698
